# Test system: Jurkat human T lymphocyte cell line
# assayExplanation: Apoptosis assay (Annexin V) of compounds incubated with human serum
# testContext: Homo sapiens, Jurkat, 24 h, read-out: ED50 (nM) in apoptosis assay after incubation with serum, incubation time in human serum 24 hours, 37° C.
metricName: EC50 (nM)
Value expressed in nM; do not type the unit.

Given the entry CCOC(=O)O[C@@H]1[C@@]2(C(C)C)O[C@H]2[C@@H]2O[C@]23[C@]12O[C@H]2C[C@H]1C2=C(CC[C@@]13C)C(=O)OC2 [PG674, Triptolide 14-Ethyl Carbonate] , what EC50 was observed with Jurkat human T lymphocyte cell line?
60

----------
# Test system: Jurkat human T lymphocyte cell line
# assayExplanation: Apoptosis assay (Annexin V) of compounds incubated with human serum
# testContext: Table 4; serum, 0 hr; 10000 nM
# Description: Compounds of formula I, as shown in Table 1 above and in the Examples, were assayed for their capacity to induce apoptosis in cells from the Jurkat human T lymphocyte cell line, after incubation with pooled human serum for varying periods of time at 37° C. (see Example 19). An ester prodrug, triptolide-14-succinate, designated PG490-88, was included for comparison. The extent of conversion to triptolide after such incubation was also independently determined by HPLC analysis. […]
Below, each of the compounds is paired with its reported % apoptotic cells at given concentration (nM) value.
Note: unit % is implicit; provide only the numeric part.

CCNC(=O)O[C@@H]1[C@@]2(C(C)C)O[C@H]2[C@@H]2O[C@]23[C@]12O[C@H]2C[C@H]1C2=C(CC[C@@]13C)C(=O)OC2 [PG666, Triptolide 14-Ethyl Carbamate] | 87.2

Jurkat human T lymphocyte cell line / % apoptotic cells at given concentration (nM) / CC(C)[C@]12O[C@H]1[C@@H]1O[C@]13[C@]1(O[C@H]1C[C@H]1C4=C(CC[C@@]13C)C(=O)OC4)[C@@H]2O [PG490, Triptolide] : value?
92.1

Notebook: pull reported % apoptotic cells at given concentration (nM) for Jurkat human T lymphocyte cell line, entry CC(C)[C@]12O[C@H]1[C@@H]1O[C@]13[C@]1(O[C@H]1C[C@H]1C4=C(CC[C@@]13C)C(=O)OC4)[C@@H]2OC(=O)N1CCN(C)CC1 [PG672, N-methylpiperazinecarbonyl (carbamate)]
47.6

----------
# Tested on: IL-2 production in Jurkat human T lymphocyte cells
# assayExplanation: IL-2 production assay for activity of compounds incubated with human serum
# testContext: percent of the IC50 value produced by triptolide (PG490) in the same experiment; human serum 48 hours
Property: Conversion (%); scope: individual compounds
Could you write the number and then its unit?

Study these solved cases before continuing.
CC(C)[C@]12O[C@H]1[C@@H]1O[C@]13[C@]1(O[C@H]1C[C@H]1C4=C(CC[C@@]13C)C(=O)OC4)[C@@H]2OC(=O)OCC(=O)O [PG687tris] | 6%
CC(C)[C@]12O[C@H]1[C@@H]1O[C@]13[C@]1(O[C@H]1C[C@H]1C4=C(CC[C@@]13C)C(=O)OC4)[C@@H]2OC(=O)OC(C)(C)C [PG695, Triptolide 14-tert-Butyl Carbonate] | 2%

So what does the record say about Conversion (%) for CCOCCOC(=O)O[C@@H]1[C@@]2(C(C)C)O[C@H]2[C@@H]2O[C@]23[C@]12O[C@H]2C[C@H]1C2=C(CC[C@@]13C)C(=O)OC2 [PG679, Triptolide 14-Ethoxyethyl Carbonate] ?
11%

So what does the record say about Conversion (%) for CC(C)[C@]12O[C@H]1[C@@H]1O[C@]13[C@]1(O[C@H]1C[C@H]1C4=C(CC[C@@]13C)C(=O)OC4)[C@@H]2OC(=O)OCC(=O)O [PG687] ?
2%

Recorded Conversion (%) of CC(C)[C@]12O[C@H]1[C@@H]1O[C@]13[C@]1(O[C@H]1C[C@H]1C4=C(CC[C@@]13C)C(=O)OC4)[C@@H]2OC(=O)OCC(=O)[O-].[Na+] [PG687Na] , please.
1%

Reported Conversion (%), compound `CC(C)[C@]12O[C@H]1[C@@H]1O[C@]13[C@]1(O[C@H]1C[C@H]1C4=C(CC[C@@]13C)C(=O)OC4)[C@@H]2OC(=O)O[C@H](C)C(=O)OC(C)(C)C` : ____
55%

Which Conversion (%) value is on record for `CC(C)[C@]12O[C@H]1[C@@H]1O[C@]13[C@]1(O[C@H]1C[C@H]1C4=C(CC[C@@]13C)C(=O)OC4)[C@@H]2OC(=O)OCCN(C)C` ?
78%

Can you share its Conversion (%)? I mean this compound: CC(C)[C@]12O[C@H]1[C@@H]1O[C@]13[C@]1(O[C@H]1C[C@H]1C4=C(CC[C@@]13C)C(=O)OC4)[C@@H]2OC(=O)CCC(=O)O [PG490-88, triptolide-14-succinate, reference compound]
51%

Request the reported Conversion (%) associated with `COC(=O)COC(=O)O[C@@H]1[C@@]2(C(C)C)O[C@H]2[C@@H]2O[C@]23[C@]12O[C@H]2C[C@H]1C2=C(CC[C@@]13C)C(=O)OC2`
44%

Recorded Conversion (%) of CC(C)[C@]12O[C@H]1[C@@H]1O[C@]13[C@]1(O[C@H]1C[C@H]1C4=C(CC[C@@]13C)C(=O)OC4)[C@@H]2OC(=O)Oc1ccccc1 [PG676, Triptolide 14-Phenyl Carbonate] , please.
84%

Requested field: Conversion (%). Item: `CC(C)[C@]12O[C@H]1[C@@H]1O[C@]13[C@]1(O[C@H]1C[C@H]1C4=C(CC[C@@]13C)C(=O)OC4)[C@@H]2OC(=O)OCCN(C)C.Cc1ccc(S(=O)(=O)O)cc1`
97%
